These data points were gathered from ChEMBL document CHEMBL2440058.

System Under Test: Androgen receptor (Homo sapiens) (UniProt P10275)
Experiment Notes: Inhibition of androgen receptor in human LNCAP cells assessed as decrease in PSA mRNA expression at 5 uM by RT-PCR analysis relative to control
Type: cell-based
Activity calls are given as the source filed them. The calls are words filed in the database; no cut-off is given here.

# Compound, inhibition
records = [
    ("O=C1C=CN(C(=O)Oc2ccccc2)[C@H](c2cccc(-c3ccccc3)c2)[C@H]1O (racemic)", "90%"),
    ("C[C@@H]1[C@@H](OC(=O)c2ccc(F)cc2C(F)(F)F)C(=O)C=CN1C(=O)Oc1ccccc1 (racemic)", "Active"),
    ("O=C1C=CN(C(=O)Oc2ccccc2)[C@H](c2ccccc2)[C@H]1O (racemic)", "90%"),
    ("O=C(O[C@H]1C(=O)C=CN(C(=O)Oc2ccccc2)[C@@H]1c1cc(F)cc(F)c1)c1ccc(F)cc1C(F)(F)F (racemic)", "Active"),
    ("Cc1csc([C@H]2NC=CC(=O)[C@@H]2OC(=O)N(C)c2ccccc2)c1 (racemic)", "90%"),
    ("CC(C)(C)[Si](C)(C)O[C@H]1C(=O)C=CN(C(=O)c2ccc(C(F)(F)F)nc2)[C@@H]1c1ccc2c(c1)OCO2 (racemic)", "90%"),
    ("Cc1csc([C@@H]2[C@@H](OC(=O)N(C)c3ccccc3)C(=O)C=CN2C(=O)Oc2ccccc2)c1 (racemic)", "90%"),
    ("O=C(Cc1ccccc1)O[C@H]1C(=O)C=CN(C(=O)/C=C/c2ccccc2)[C@@H]1c1ccccc1 (racemic)", "Active"),
]

* * *

System Under Test: Androgen receptor (Homo sapiens)
Experiment Notes: Inhibition of androgen receptor in human LNCAP cells assessed as decrease in PSA mRNA expression at 5 uM by RT-PCR analysis relative to control
Format: cell-based
Activity calls are given as the source filed them. No cut-off for these calls is given here.

# Compound, inhibition
rows = [
    ("O=C1C=CN(C(=O)Oc2ccccc2)[C@H](c2ccc3c(c2)OCO3)[C@H]1O (racemic)", "90%"),
    ("O=C(/C=C/c1cccc(C(F)(F)F)c1)O[C@H]1C(=O)C=CN(C(=O)/C=C/c2ccccc2)[C@@H]1c1ccccc1 (racemic)", "Active"),
    ("N#Cc1cccc(C(=O)O[C@H]2C(=O)C=CN(C(=O)/C=C/c3ccccc3)[C@@H]2c2ccccc2)c1 (racemic)", "Active"),
    ("O=C1C=CN(C(=O)/C=C/c2ccccc2)[C@H](c2ccccc2)[C@H]1O (racemic)", "Active"),
    ("CC(C)(C)[Si](C)(C)O[C@H]1C(=O)C=CN(C(=O)C2CC2)[C@@H]1c1ccc2c(c1)OCO2 (racemic)", "90%"),
    ("CC(C)[C@@H]1[C@@H](OC(=O)c2ccc(F)cc2C(F)(F)F)C(=O)C=CN1C(=O)Oc1ccccc1 (racemic)", "Active"),
    ("O=C(O[C@H]1C(=O)C=CN(C(=O)c2ccccc2)[C@@H]1c1ccccc1)c1ccc(F)cc1C(F)(F)F (racemic)", "90%"),
    ("CC(C)=C[C@@H]1[C@@H](OC(=O)c2ccc(F)cc2C(F)(F)F)C(=O)C=CN1C(=O)Oc1ccccc1 (racemic)", "Active"),
]

* * *

System Under Test: UniProtKB P10275
Sequence (whole entry): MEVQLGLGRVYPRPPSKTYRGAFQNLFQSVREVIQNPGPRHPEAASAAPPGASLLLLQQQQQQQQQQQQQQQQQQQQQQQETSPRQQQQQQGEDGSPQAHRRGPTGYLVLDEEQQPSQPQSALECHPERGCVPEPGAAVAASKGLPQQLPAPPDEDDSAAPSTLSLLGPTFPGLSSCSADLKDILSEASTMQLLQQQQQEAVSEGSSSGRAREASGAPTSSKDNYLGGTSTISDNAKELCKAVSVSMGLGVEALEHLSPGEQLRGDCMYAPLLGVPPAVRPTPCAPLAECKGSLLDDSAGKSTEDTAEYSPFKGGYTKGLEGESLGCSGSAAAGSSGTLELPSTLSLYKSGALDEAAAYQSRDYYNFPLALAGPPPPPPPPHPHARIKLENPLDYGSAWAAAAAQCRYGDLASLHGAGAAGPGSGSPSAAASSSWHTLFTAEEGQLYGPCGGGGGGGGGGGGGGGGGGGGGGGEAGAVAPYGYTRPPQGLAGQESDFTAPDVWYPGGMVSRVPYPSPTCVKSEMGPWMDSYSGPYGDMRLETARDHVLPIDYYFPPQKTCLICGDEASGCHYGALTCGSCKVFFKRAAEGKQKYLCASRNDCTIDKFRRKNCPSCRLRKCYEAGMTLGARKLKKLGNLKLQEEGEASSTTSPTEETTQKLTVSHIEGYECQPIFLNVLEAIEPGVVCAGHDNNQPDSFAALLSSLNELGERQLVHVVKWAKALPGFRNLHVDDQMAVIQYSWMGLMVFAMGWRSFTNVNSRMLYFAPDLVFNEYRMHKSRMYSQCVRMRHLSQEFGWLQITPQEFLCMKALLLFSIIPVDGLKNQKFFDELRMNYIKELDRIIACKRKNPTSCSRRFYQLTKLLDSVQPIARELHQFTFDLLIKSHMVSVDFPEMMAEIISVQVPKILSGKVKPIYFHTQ
Experiment Notes: Inhibition of androgen receptor in human LNCAP cells assessed as decrease in TMPRSS2 mRNA expression at 5 uM by RT-PCR analysis relative to control
Format: cell-based
The source made the active and inactive calls. The rule behind the calls is not given here.
Assay Metric: inhibition

# Compound, System Under Test, Result
data = [
    ("O=C(O[C@H]1C(=O)C=CN(C(=O)Oc2ccccc2)[C@@H]1c1cc(F)cc(F)c1)c1ccc(F)cc1C(F)(F)F (racemic)", "UniProtKB P10275", "Active"),
    ("N#Cc1ccc(C(=O)O[C@H]2C(=O)C=CN(C(=O)/C=C/c3ccccc3)[C@@H]2c2ccccc2)cc1 (racemic)", "UniProtKB P10275", "Active"),
    ("Cc1csc([C@@H]2[C@@H](O)C(=O)C=CN2C(=O)Oc2ccccc2)c1 (racemic)", "UniProtKB P10275", "90%"),
    ("O=C(O[C@H]1C(=O)C=CN(C(=O)Oc2ccccc2)[C@@H]1c1cccc(-c2ccccc2)c1)c1ccc(F)cc1C(F)(F)F (racemic)", "UniProtKB P10275", "Active"),
    ("O=C(O[C@H]1C(=O)C=CN(C(=O)Oc2ccccc2)[C@@H]1c1ccc2c(c1)OCO2)c1ccc(F)cc1C(F)(F)F (racemic)", "UniProtKB P10275", "Active"),
    ("O=C1C=CN(C(=O)Oc2ccccc2)[C@H](c2ccccc2)[C@H]1O (racemic)", "UniProtKB P10275", "90%"),
]

* * *

System Under Test: Androgen receptor (Homo sapiens, UniProt P10275)
Sequence (P10275 whole entry): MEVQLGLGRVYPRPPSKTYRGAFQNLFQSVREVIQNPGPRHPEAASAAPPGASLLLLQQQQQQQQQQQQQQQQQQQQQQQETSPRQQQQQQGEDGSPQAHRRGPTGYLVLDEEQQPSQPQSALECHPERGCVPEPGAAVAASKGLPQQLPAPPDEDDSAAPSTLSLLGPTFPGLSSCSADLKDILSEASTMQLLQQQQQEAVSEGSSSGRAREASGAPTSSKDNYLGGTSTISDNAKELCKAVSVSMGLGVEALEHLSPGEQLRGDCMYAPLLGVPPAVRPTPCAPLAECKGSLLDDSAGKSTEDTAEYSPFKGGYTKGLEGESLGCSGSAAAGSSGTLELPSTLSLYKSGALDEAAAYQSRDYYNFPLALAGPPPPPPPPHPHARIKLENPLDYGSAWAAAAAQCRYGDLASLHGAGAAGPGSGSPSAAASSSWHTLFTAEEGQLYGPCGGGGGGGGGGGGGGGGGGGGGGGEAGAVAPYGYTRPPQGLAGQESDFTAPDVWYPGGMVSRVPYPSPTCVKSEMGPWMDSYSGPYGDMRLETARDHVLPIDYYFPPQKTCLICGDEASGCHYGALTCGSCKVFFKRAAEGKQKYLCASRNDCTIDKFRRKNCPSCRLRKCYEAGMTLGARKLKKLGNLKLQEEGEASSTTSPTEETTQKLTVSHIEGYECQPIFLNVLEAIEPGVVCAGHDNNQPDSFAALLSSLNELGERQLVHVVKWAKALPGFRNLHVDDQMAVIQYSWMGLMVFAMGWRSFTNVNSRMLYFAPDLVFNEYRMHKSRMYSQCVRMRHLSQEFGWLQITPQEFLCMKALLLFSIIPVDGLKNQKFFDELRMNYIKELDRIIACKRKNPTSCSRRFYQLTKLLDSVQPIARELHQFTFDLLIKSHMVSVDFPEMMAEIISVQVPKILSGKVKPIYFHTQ
pIC50: −log10 of the molar value.
Assay Metric: pIC50

# Compound, System Under Test, Readout Number
data = [
    ("O=C(O[C@H]1C(=O)C=CN(C(=O)/C=C/c2ccccc2)[C@@H]1c1ccccc1)c1ccc(F)cc1C(F)(F)F (racemic)", "Androgen receptor (Homo sapiens, UniProt P10275)", 4.52),
]
